Ref: patent US8551988B2

Overview of recorded pIC50 for various compounds
target: HDAC8 enzyme (recombinant GST-HDAC8) (Homo sapiens (Human))
Sequence (Q9BY41 whole entry): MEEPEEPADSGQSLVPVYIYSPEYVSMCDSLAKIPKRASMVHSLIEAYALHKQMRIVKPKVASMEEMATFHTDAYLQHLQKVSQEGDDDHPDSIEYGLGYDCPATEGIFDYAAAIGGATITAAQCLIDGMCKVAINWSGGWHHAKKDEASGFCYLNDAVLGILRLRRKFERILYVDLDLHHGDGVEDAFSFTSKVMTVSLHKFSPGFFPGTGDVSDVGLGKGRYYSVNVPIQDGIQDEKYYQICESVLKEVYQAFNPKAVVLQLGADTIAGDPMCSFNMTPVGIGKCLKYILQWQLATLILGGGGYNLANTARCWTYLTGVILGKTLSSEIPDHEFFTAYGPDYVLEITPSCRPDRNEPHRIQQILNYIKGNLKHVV
procedure details: In vitro HDAC assay (BIOMOL fluorescent-based HDAC activity assay), HDAC8
Format: biochemical
condition summary: read-out: HDAC8 Enzyme Activity IC50
pIC50: −log10 of the molar value.

[
  {
    "compound": "CCCCCCCCc1nc2cc(/C=C/C(=O)NO)ccc2n1CCCO",
    "pIC50": 6.40
  },
  {
    "compound": "O=C(/C=C/c1ccc2c(c1)nc(CCc1ccccc1)n2CCCN1CCCC1=O)NO",
    "pIC50": 6.14
  },
  {
    "compound": "O=C(/C=C/c1ccc2c(c1)ncn2CCc1ccccn1)NO",
    "pIC50": 6.63
  },
  {
    "compound": "O=C(NO)c1ccc2c(c1)nc(CCc1ccccc1)n2CCCO",
    "pIC50": 6.36
  },
  {
    "compound": "COc1cc(Cn2c(CCc3ccccc3)nc3cc(/C=C/C(=O)NO)ccc32)cc(OC)c1OC",
    "pIC50": 6.45
  },
  {
    "compound": "O=C(/C=C/c1ccc2c(c1)nc(CCc1ccccc1)n2CCCO)NO",
    "pIC50": 6.60
  },
  {
    "compound": "COc1cc(-c2nc3cc(/C=C/C(=O)NO)ccc3n2CC(O)CO)ccc1OCc1ccccc1 (stereo not drawn)",
    "pIC50": 6.47
  },
  {
    "compound": "O=C(/C=C/c1ccc2c(c1)nc(-c1ccccn1)n2CCCO)NO",
    "pIC50": 6.85
  },
  {
    "compound": "CC(C)Cc1nc2cc(/C=C/C(=O)NO)ccc2n1CCc1ccccc1",
    "pIC50": 6.22
  }
]

----------
target: HDAC8 enzyme (recombinant GST-HDAC8) (Homo sapiens (Human))
procedure details: In vitro HDAC assay (BIOMOL fluorescent-based HDAC activity assay), HDAC8
Assay type: biochemical
condition summary: Free base; read-out: IC50 (HDAC8)
readout label: IC50

[
  {
    "smiles": "CN(C)CC(C)(C)Cn1c(CCc2ccccc2)nc2cc(/C=C/C(=O)NO)ccc21",
    "target": "HDAC8 enzyme (recombinant GST-HDAC8) (Homo sapiens (Human))",
    "result value": "353 nM"
  },
  {
    "smiles": "COc1cc(Cn2c(CCc3ccccc3)nc3cc(/C=C/C(=O)NO)ccc32)cc(OC)c1OC",
    "target": "HDAC8 enzyme (recombinant GST-HDAC8) (Homo sapiens (Human))",
    "result value": "267 nM"
  },
  {
    "smiles": "O=C(/C=C/c1ccc2c(c1)nc(CCc1ccccc1)n2CCN1CCCCC1)NO",
    "target": "HDAC8 enzyme (recombinant GST-HDAC8) (Homo sapiens (Human))",
    "result value": "254 nM"
  }
]

----------
target: HDAC8 enzyme (recombinant GST-HDAC8) (Homo sapiens (Human))
procedure details: In vitro HDAC assay (BIOMOL fluorescent-based HDAC activity assay), HDAC8
Format: biochemical
condition summary: read-out: HDAC8 Enzyme Activity IC50
pIC50: −log10 of the molar value.
readout label: pIC50

[
  {
    "compound": "CCn1c(C)nc2cc(/C=C/C(=O)NO)ccc21 [Compound 43]",
    "result value": 6.72
  },
  {
    "compound": "CC(Cc1nc2cc(/C=C/C(=O)NO)ccc2n1CCCO)c1ccccc1 (stereo not shown) [Compound 1]",
    "result value": 6.92
  },
  {
    "compound": "COc1ccc(-c2nc3cc(/C=C/C(=O)NO)ccc3n2CCO)cc1 [Compound 5]",
    "result value": 6.40
  },
  {
    "compound": "O=C(/C=C/c1ccc2c(c1)nc(CCc1ccccc1)n2CC(O)CO)NO (stereo not shown) [Compound 8]",
    "result value": 6.34
  },
  {
    "compound": "O=C(/C=C/c1ccc2c(c1)nc(COCc1ccccc1)n2CCCO)NO [Compound 19]",
    "result value": 6.84
  },
  {
    "compound": "O=C(/C=C/c1ccc2c(c1)nc(CCc1ccccc1)n2CCCN1CCOCC1)NO [Compound 31]",
    "result value": 5.96
  },
  {
    "compound": "O=C(/C=C/c1ccc2c(c1)nc(CCc1ccccc1)n2Cc1cccnc1)NO [Compound 12]",
    "result value": 6.69
  },
  {
    "compound": "CC(C)Cc1nc2cc(/C=C/C(=O)NO)ccc2n1Cc1ccccc1 [Compound 34]",
    "result value": 6.07
  },
  {
    "compound": "O=C(/C=C/c1ccc2c(c1)ncn2Cc1ccccc1)NO [Compound 35]",
    "result value": 6.39
  },
  {
    "compound": "CC(Cc1nc2cc(/C=C/C(=O)NO)ccc2n1CCc1cccnc1)c1ccccc1 (stereo not shown) [Compound 41]",
    "result value": 6.80
  },
  {
    "compound": "COc1cc(-c2nc3cc(/C=C/C(=O)NO)ccc3n2CCCO)ccc1OCc1ccccc1 [Compound 4]",
    "result value": 6.10
  },
  {
    "compound": "COCCCn1c(CCc2ccccc2)nc2cc(/C=C/C(=O)NO)ccc21 [Compound 15]",
    "result value": 6.50
  },
  {
    "compound": "O=C(/C=C/c1ccc2c(c1)nc(-c1ccccn1)n2CC(O)CO)NO (stereo not shown) [Compound 9]",
    "result value": 6.46
  }
]
